# measured-target: PSMA (prostate specific membrane antigen) (Homo sapiens, UniProt Q04609 Q04609:44-750)
# Sequence (Q04609 44-750, one chain of several): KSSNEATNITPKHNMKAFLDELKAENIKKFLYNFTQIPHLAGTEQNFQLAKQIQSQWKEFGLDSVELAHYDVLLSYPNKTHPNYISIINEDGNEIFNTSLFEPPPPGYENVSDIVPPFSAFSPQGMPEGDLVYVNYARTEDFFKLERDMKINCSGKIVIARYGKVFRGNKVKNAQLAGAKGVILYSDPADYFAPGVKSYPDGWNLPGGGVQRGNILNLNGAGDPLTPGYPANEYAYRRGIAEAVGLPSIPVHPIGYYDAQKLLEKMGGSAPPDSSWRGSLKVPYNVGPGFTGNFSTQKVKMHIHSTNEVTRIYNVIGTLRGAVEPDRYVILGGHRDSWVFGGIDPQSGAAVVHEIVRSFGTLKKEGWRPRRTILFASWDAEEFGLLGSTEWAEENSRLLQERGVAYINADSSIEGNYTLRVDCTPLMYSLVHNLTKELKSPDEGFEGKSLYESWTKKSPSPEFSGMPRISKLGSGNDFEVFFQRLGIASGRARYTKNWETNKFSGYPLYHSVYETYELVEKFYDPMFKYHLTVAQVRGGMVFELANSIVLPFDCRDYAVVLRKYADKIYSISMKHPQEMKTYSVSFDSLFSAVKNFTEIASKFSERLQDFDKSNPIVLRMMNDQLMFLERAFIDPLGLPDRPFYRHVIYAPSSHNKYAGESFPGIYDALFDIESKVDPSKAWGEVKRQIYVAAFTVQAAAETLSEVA
# assay-method-text: cell_activity; transwell migration
# setup-conditions: tags: PSMA-expressing cells, migration and invasion assays; chain copies: 2
assay-readout: IC50

Request: Which measured IC50 value corresponds to A9 (ssRNA, 2'-F pyrimidines) RNA: GGGAGGACGAUGCGGACCGAAAAAGACCUGACUUCUAUACUAAGUCUACGUUCCCAGACGACUCGCCCGA ?
Result: 81 nM
